// UniProt:P21709 Kd records
Sequence (P21709 whole entry): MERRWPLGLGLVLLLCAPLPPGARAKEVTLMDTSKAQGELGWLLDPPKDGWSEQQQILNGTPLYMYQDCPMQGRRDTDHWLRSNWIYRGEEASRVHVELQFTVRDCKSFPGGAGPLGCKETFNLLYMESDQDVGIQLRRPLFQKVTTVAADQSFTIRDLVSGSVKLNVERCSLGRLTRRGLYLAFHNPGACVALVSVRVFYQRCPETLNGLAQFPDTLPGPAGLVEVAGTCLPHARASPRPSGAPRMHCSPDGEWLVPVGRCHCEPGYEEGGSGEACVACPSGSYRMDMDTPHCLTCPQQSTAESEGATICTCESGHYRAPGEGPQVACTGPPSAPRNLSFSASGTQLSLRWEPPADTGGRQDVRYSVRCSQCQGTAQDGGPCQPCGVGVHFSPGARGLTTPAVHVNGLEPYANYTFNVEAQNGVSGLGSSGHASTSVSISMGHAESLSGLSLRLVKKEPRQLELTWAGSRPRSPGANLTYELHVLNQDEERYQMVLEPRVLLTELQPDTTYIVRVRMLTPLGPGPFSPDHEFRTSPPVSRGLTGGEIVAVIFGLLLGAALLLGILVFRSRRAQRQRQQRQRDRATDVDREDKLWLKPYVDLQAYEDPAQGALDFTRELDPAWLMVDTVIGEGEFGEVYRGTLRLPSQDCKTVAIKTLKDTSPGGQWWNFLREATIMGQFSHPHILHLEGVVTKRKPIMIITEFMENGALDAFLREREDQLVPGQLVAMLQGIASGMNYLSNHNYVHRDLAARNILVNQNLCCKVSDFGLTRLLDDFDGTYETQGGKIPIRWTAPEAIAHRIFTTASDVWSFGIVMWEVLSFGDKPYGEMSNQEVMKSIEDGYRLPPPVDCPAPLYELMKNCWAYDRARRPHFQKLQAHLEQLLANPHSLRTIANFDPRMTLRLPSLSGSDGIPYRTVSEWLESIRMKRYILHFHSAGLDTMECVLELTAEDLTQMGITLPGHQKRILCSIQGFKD
The source made the active and inactive calls.

# get_value(readout='Kd', item= `C=CCn1c(=O)c2cnc(Nc3ccc(N4CCN(C)CC4)cc3)nc2n1-c1cccc(C(C)(C)O)n1` )
> 30 µM (inactive)

`CN(c1ncccc1CNc1nc(Nc2ccc3c(c2)CC(=O)N3)ncc1C(F)(F)F)S(C)(=O)=O` ?
> 30 µM (inactive)

`COc1cc(F)c(F)c(Nc2ccc(I)cc2F)c1NS(=O)(=O)C1(C[C@H](O)CO)CC1` ?
> 30 µM (inactive)

COc1ccc(-c2ccc3ncc4c(c3c2)n(-c2ccc(N3CCNCC3)c(C(F)(F)F)c2)c(=O)n4C)cn1 [BGT-226 FREE BASE] ?
> 30 µM (inactive)
